target: JAK2 (Homo sapiens (Human), UniProt O60674); assay: JAK Caliper Enzyme Assay at 1 mM ATP, JAK2; assay type: biochemical
Sequence (O60674 849-1124): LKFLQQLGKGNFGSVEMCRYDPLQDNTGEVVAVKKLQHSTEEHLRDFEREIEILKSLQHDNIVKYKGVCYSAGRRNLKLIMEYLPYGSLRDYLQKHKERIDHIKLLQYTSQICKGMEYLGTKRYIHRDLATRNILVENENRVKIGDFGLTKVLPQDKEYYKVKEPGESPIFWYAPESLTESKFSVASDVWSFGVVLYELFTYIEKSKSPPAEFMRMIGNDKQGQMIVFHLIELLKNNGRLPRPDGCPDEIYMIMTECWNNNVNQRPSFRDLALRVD
parameter: pIC50
# pIC50 is unitless: minus log10 of the molar concentration; print number only

Consider the reported pIC50 for these compounds:
[
  {
    "compound": "N#CCC1CC(CC#N)(n2ccc(-c3nc(-c4ccn[nH]4)cc4ncccc34)n2)C1 (stereo not shown)",
    "pIC50": 6.67
  },
  {
    "compound": "C[C@]1(C#N)C[C@@](CC#N)(n2ncc(-c3cc(-c4cn[nH]c4N)cc4ncccc34)n2)C1",
    "pIC50": 6.02
  },
  {
    "compound": "CS(=O)(=O)N1CC(CC#N)(n2ccc(-c3nc(-c4cnn([C@@H]5CCOC5)c4)cc4ncccc34)n2)C1",
    "pIC50": 7.17
  },
  {
    "compound": "CS(=O)(=O)N1CC(CC#N)(n2ccc(-c3nc(-c4cnc5c(c4)NCCN5)cc4ncccc34)n2)C1",
    "pIC50": 6.40
  }
]

Consider Cc1cc(-c2nc(-c3ccn[nH]3)cc3ncccc23)nn1C1(CC#N)CN(S(C)(=O)=O)C1 . Its measured pIC50 is 6.07

So for N#CC[C@]1(n2ccc(-c3nc(-c4cn[nH]c4CO)cc4ncccc34)n2)C[C@@H](C#N)C1 , the logged pIC50 turned out to be 7.66
